Biological target: T1, MLL3_(PHD2/3) E387Q (human, UniProt Q8NEZ4 342-439, E387Q)
T1 sequence: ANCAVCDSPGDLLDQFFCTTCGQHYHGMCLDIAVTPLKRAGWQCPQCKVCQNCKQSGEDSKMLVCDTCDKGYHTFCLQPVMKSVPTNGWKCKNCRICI
readout_kind: Kd (µM)
Please reply with the bare figure in µM and do not write the unit itself.

Fill in Kd for record NRTGARTLADIKAKAQLVKAQ (peptide, UniProt Q76L83 650-670, looked up, also called ASXL2 (aa 650-670); MBH of ASXL2; source: synthetic peptide (SynPeptide)) [ASXL2 peptide (residues 650-670 of ASXL2)] 6
